# credit: PubChem BioAssay (NCATS)

system-under-test: Rap guanine nucleotide exchange factor 3 (Homo sapiens)
assay-overview: Confirmatory qHTS for antagonist of cAMP-regulated guanine nucleotide exchange factor 3 (EPAC1) (AID 1645880); note: nearly all actives have a fitted effect of over 55% in size
run-conditions: EPAC1 Rap1B-BODIPY-GDP exchange, fluorescence; series mostly up to 115 µM
Results filed as inconclusive are left out. Active and inactive are the calls of the source. Calls come from the whole dose curve; as a rule, active = well fitted inhibition curve with a large enough effect; inconclusive = small, poorly fitted or top-dose-only effect; inactive = no such curve, though single readings can be large or run the other way.
I would appreciate it if you answered using one of these outcomes: true (1) for active, false (0) for inactive

The examples below pair each entry with its known result.
• CCC(C(=O)Nc1cc(OC)ccc1OC)n1nc(-c2ccccc2)c2c(c1=O)CCCC2 (stereo not drawn) = false (0)
• Cc1ccc(S(=O)(=O)/N=C2\C=C(Nc3cccc(C(=O)O)c3)C(=O)c3ccccc32)c(C)c1 = true (1)
• CC(/C=C1\SC(=S)N(NS(=O)(=O)c2ccccc2)C1=O)=C\c1ccccc1 = true (1)

Assay result, entry `CCN(CCn1cccn1)Cc1c(C(=O)N2CCCCCCC2)nc2ccc(Cl)cn12` — outcome?
false (0)

Record request — test call for `Cc1ccc(NC(=O)CSc2ncn[nH]2)cc1C`
false (0)

Please state the recorded outcome for this molecule: `CC1(C)Cc2c(C#N)c(N3CCN(C(=O)c4ccccc4Cl)CC3)nc(-c3ccco3)c2CS1`
true (1)

// return assay outcome for COC(=O)C(C)N(C(=O)c1ccc(Cl)cc1)c1c(C)cccc1C (stereo not drawn)
false (0)

Which outcome did this test record for the molecule CCCc1[nH]nc2c1C(c1cccnc1)C(C#N)=C(N)O2 (stereo not drawn) ?
false (0)

Give the logged outcome of this assay for the following molecule: `OC[C@H]1O[C@H](OCCc2ccc(O)cc2)[C@H](O)[C@@H](O)[C@@H]1O`
false (0)

State the result this test recorded for CCOC(=O)C1C(=O)C=C(c2ccccc2)CC1c1ccccc1 (stereo not drawn) .
false (0)

Per the assay record, what outcome was assigned to `Cc1ccc(S(=O)(=O)N2[C@@H](c3ccc(Br)cc3)C(C(=O)O)=CC[C@H]2c2ccc(Cl)cc2)cc1` ?
true (1)

Please let me know the test result on file for `O=C(/C=C/c1ccc(Cl)cc1)Nc1nccs1` .
false (0)

* * *

System: DIV30
assay-overview: qHTS profiling for inhibitors of Plasmodium falciparum proliferation (AID 504749); note: nearly all actives have a fitted effect of over 60% in size
run-conditions: P. falciparum in erythrocytes, SYBR Green DNA, 72 h; series mostly up to 12.8 µM
Records with an inconclusive call do not appear. Activity calls are given as the source filed them. Calls come from the whole dose curve; as a rule, active = well fitted inhibition curve with a large enough effect; inconclusive = small, poorly fitted or top-dose-only effect; inactive = flat fitted curve, though single readings scatter.
Result category, one only: active, inactive

# example entries with known answers
- c1ccc2c(c1)CCC[C@@H]2C1=NCCN1: inactive
- COC1C=CO[C@@]2(C)Oc3c(C)c(O)c4c(O)c(c(C=NN5CCN(C)CC5)c(O)c4c3C2=O)NC(=O)/C(C)=C\C=CC(C)C(O)[C@@H](C)C(O)C(C)[C@H](OC(C)=O)C1C (stereo partly drawn): active

Now examine the next entry.
Tell me the recorded outcome of this test for CN(C)CCc1c[nH]c2ccc(CC3COC(=O)N3)cc12 (stereo not drawn) .
inactive

* * *

system-under-test: Rap guanine nucleotide exchange factor 3 (Homo sapiens) (UniProt O95398)
Sequence (O95398 whole entry, looked up): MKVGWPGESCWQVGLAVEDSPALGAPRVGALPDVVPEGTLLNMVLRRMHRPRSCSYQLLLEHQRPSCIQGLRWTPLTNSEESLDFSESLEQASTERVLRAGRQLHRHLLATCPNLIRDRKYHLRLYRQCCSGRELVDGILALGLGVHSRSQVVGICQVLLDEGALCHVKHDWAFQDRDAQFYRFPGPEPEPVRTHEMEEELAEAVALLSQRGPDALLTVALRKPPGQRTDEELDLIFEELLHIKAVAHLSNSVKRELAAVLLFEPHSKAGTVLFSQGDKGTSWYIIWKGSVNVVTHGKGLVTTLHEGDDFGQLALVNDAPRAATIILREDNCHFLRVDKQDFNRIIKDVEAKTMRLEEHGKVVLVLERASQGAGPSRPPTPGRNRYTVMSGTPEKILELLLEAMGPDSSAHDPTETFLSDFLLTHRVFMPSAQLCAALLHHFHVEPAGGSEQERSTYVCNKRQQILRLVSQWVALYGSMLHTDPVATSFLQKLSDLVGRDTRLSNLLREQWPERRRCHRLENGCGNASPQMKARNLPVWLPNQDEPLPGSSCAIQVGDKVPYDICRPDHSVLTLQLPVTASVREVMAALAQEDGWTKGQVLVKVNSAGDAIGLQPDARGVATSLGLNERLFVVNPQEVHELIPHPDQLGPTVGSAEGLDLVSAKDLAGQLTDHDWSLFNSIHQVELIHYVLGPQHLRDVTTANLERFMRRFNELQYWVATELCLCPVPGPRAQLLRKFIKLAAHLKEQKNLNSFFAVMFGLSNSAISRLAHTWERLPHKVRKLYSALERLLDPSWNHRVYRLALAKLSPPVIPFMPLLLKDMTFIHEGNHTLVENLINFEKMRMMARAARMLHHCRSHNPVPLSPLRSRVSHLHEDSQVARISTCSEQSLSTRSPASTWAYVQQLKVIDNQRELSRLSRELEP
assay-overview: Confirmatory qHTS for antagonist of cAMP-regulated guanine nucleotide exchange factor 3 (EPAC1) (AID 1645880); note: nearly all actives have a fitted effect of over 55% in size
run-conditions: EPAC1 Rap1B-BODIPY-GDP exchange, fluorescence; series mostly up to 115 µM
Results filed as inconclusive are left out. Activity calls are given as the source filed them. Calls come from the whole dose curve; as a rule, active = well fitted inhibition curve with a large enough effect; inconclusive = small, poorly fitted or top-dose-only effect; inactive = no such curve, though single readings can be large or run the other way.
Bench note: report the call from true = active, false = inactive

Record excerpt, results attached:
- COc1cc2c(C#N)c(N3CCCC3)nc(N)c2c(N)n1: true
- COc1c(-c2ccccc2)oc2c(ccc3occc32)c1=O: false
- CCCCN(C(=O)c1cccc2c(=O)c(C)c(-c3ccccc3)oc12)c1ccccc1: false
- Cc1cc(C)c(S(=O)(=O)N2CCCCC2CCNC(=O)C(=O)NCC2CCCO2)c(C)c1 (stereo not drawn): false
- COc1ccc2oc(C(=O)CCC(=O)O)c(N)c2c1: false
- O=C(Nc1cc(C(=O)Nc2ccccc2C(=O)O)cc(C(=O)Nc2ccccc2C(=O)O)c1)c1ccccc1: true
- C[C@@H]1CN([C@@H](C)CO)S(=O)(=O)c2ccc(Br)cc2O[C@H]1CN(C)Cc1ccccc1F: false
- CCOC(=O)c1ccccc1-c1csc(NS(=O)(=O)c2ccc(Cl)cc2)n1: true

Field: outcome | Entry: `Cc1ccc(S(=O)(=O)N2[C@@H](c3cccc(Cl)c3)C(C(=O)O)=CC[C@H]2c2ccc(C(C)C)cc2)cc1`
true

Please state the recorded outcome for this molecule: `CN(Cc1ccc(F)cc1)C(=O)c1cccc(OCc2ccccc2)c1`
false

Just curious, what result did `C=CCN(CC=C)Cc1cc(=O)oc2ccc3ccccc3c12` get here?
false

* * *

system-under-test: Rap guanine nucleotide exchange factor 3 (Homo sapiens)
assay-overview: Counterscreen qHTS for antagonist of cAMP-regulated guanine nucleotide exchange factor 3 (EPAC1) (AID 1645888);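 note: fluorescence loss as bound BODIPY-GDP is released from Rap1B; % of control where 0% means no effect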
run-conditions: Rap1B-BODIPY-GDP nucleotide exchange, fluorescence; series mostly up to 154 µM
Records with an inconclusive call do not appear. The source made the active and inactive calls. Calls follow the shape of the dose curve; as a rule, active = well fitted inhibition curve with a large enough effect; inconclusive = small, poorly fitted or top-dose-only effect; inactive = no such curve, though single readings can be large or run the other way.
observed-property: activity change, negative = inhibition

Please review the following examples before continuing.
- CC1CCCCN1C(=O)COC(=O)c1cc([N+](=O)[O-])ccc1N1CCOCC1 (stereo unspecified): inactive
- O=C(COC(=O)CSc1ccc([N+](=O)[O-])cc1)NCc1cccs1: inactive
- O=C1c2cccc3cccc(c23)N1Cc1ccc(F)cc1: -16.7% [at 30.8 µM] (inactive)
- CN1N=C(C(C)(C)C)CC1=O: inactive
- Cc1cccc(CN2[C@@H](CC(C)C)COCCS2(=O)=O)c1: inactive

The record that follows has no activity change, negative = inhibition shown yet.
Measured activity change, negative = inhibition, `Cc1ccc(C)c(N(C)C(=O)c2cn(C)c(=O)c3ccccc23)c1` : inactive

* * *

assay-overview: qHTS Assay for Lipid Storage Modulators (AID 1519)
run-conditions: Drosophila S3 cells, BODIPY lipid droplet/cell ratio, laser cytometry; measured here: lipid channel max response; cells loaded with oleic acid
Records with an inconclusive call do not appear.
Please enter yes (1) where max response is greater than or equal to 10%, and no (0) where it is lower.

The following compounds have reported results that may help.
- CC1CC[C@@]23CCC4(C)[C@@]5(C)CCC6C(C)(C)C(O)CC[C@@]6(C)C5C=C[C@@]4(OC2=O)C3C1C (some centres undefined): yes (1)
- COc1ccc(-c2cc(=O)c3c(O)cc(O)cc3o2)cc1: yes (1)
- CC1OC(OCC2OC(Oc3c(-c4ccc(O)c(O)c4)oc4cc(O)cc(O)c4c3=O)C(O)C(O)C2O)C(O)C(O)C1O (centres undefined): no (0)

Could you tell me if the measured max response of CCC(CCC(C)C1CCC2C3CC=C4CC(O)CC[C@@]4(C)C3CC[C@@]12C)C(C)C (some centres undefined) reaches 10% or more?
yes (1)

Evaluate `C=C(C)[C@H]1CC[C@]2(CO)CC[C@]3(C)[C@@H](CC[C@H]4[C@@]5(C)CC[C@@H](O)C(C)(C)[C@@H]5CC[C@@]43C)[C@H]12` : max response at minimum 10%?
no (0)

In plain terms: is recorded max response at least 10% for `CCCCCCCCCCCCCc1ccco1` ?
no (0)

Quick check, max response >= 10%? `C[C@H](N)CCCC(C)(C)O`
no (0)

Is max response for `C[C@@H](CNC1CCCCC1)OC(=O)c1ccccc1` at or above 10%?
no (0)

Please indicate if the recorded max response for `C[C@@]12CC3CC(N)(C1)C[C@@](C)(C3)C2` meets or exceeds 10%.
no (0)

Reported max response reaches at least 10% for `O=C1O[C@@H]([C@@H](O)CO)[C@@H](O)[C@H]1O` ?
no (0)

Is reported max response greater than or equal to 10% here: `CN=C(NC#N)NCCSC[C@H]1N=CN=C1C`
no (0)

Does `O=C(O)COCCN1CCN([C@@H](c2ccccc2)c2ccc(Cl)cc2)CC1` have a reported max response of at least 10%?
no (0)

Dear colleague, could you confirm whether `O=C(/C=C/C(=O)Oc1ccccc1C(=O)O)Oc1ccccc1C(=O)O` has max response at or above 10%?
yes (1)

hey, is max response for this one >= 10%? `O=C(Cc1ccccc1)NO`
no (0)

# check: max response of `NC(=O)NCCC[C@H](N)C(=O)O` is greater than or equal to 10%
no (0)

Please indicate if the recorded max response for COc1ccc(-c2oc3c(CC=C(C)C)c(O[C@H]4OC(CO)C(O)C(O)C4O)cc(O)c3c(=O)c2O[C@@H]2OC(C)C(O)C(O)C2O)cc1 (some centres undefined) meets or exceeds 10%.
yes (1)

Has CC1(C)OC2CC3C4CC(F)C5=CC(=O)CC[C@@]5(C)C4C(O)C[C@@]3(C)[C@]2(C(=O)CO)O1 (some centres undefined) a recorded max response greater than or equal to 10%?
yes (1)

Does the reported max response for `CCOc1cccc(C(=O)c2ccc(O)c(O)c2O)c1` fall at or above the 10% mark?
no (0)

Decide: is the reported value of max response for CCOC(=O)C(CCc1ccccc1)NC(C)C(=O)N1C(C(=O)O)CC2CCCC21 (centres undefined) equal to or greater than 10%?
yes (1)

Is it the case that COC1C=CO[C@@]2(C)Oc3c(C)c(O)c4c(O)c(c(C=NN5CCN(C)CC5)c(O)c4c3C2=O)NC(=O)/C(C)=C\C=CC(C)C(O)[C@@H](C)C(O)C(C)[C@H](OC(C)=O)C1C (some centres undefined) has max response reaching or exceeding 10%?
yes (1)

Could you verify whether the entry CO/N=C(\C(=O)NC1C(=O)N2C(C(=O)OCOC(=O)C(C)(C)C)=C(/C=C\c3scnc3C)CSC12)c1csc(N)n1 (centres undefined) shows max response of no less than 10%?
yes (1)

Quick check: does Cc1cn(C2CCC(CO)O2)c(=O)[nH]c1=O (centres undefined) have max response greater than or equal to 10%?
yes (1)
